Measured pIC50, listed per entry for reference.
molecular target: UniProt:O75116; test: Inhibition of human N-terminal GST-tagged ROCK2 expressed in baculovirus-infected insect cells using long S6 kinase peptide as substrate by radiometric assay in presence of [32P]ATP and 200 uM ATP
Sequence (O75116 whole entry): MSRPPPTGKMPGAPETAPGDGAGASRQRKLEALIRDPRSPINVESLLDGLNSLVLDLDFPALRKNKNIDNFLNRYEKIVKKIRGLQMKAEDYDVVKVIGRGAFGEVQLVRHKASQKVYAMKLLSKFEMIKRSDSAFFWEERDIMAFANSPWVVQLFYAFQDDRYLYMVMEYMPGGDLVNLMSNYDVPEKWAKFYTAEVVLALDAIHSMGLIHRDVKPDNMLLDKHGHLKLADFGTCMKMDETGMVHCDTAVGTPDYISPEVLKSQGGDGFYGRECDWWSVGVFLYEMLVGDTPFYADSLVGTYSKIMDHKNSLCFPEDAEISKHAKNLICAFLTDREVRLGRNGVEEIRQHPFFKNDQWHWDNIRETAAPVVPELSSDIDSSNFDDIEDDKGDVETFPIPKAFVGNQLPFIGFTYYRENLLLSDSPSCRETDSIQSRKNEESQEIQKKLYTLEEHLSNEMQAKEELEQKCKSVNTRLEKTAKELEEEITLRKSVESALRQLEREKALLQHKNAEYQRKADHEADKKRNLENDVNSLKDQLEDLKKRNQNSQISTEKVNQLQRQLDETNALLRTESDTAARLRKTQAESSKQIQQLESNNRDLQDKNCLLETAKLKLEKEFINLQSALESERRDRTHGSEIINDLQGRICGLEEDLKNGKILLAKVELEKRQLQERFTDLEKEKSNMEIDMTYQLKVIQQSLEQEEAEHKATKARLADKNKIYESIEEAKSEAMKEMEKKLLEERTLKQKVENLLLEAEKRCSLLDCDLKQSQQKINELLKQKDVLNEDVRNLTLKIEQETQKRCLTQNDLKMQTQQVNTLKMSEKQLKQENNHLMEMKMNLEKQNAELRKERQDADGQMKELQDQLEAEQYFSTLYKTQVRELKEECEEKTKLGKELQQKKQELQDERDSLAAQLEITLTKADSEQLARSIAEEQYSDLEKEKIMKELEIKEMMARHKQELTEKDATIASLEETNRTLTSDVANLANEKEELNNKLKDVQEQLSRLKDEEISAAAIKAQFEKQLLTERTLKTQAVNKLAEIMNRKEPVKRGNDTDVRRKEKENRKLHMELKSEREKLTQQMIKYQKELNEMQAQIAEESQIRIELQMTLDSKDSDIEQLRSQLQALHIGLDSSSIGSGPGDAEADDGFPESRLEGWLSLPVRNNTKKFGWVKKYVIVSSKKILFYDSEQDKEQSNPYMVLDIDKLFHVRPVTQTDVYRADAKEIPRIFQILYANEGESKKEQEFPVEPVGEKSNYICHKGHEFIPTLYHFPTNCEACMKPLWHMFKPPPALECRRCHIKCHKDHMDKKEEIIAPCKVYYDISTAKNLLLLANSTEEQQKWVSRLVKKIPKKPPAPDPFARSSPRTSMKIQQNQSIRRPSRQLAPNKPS
pIC50: −log10 of the molar value.

Here are 2 compounds together with their reported answers.
>>> result("CC[C@H](C)OC(=O)Cc1ccc(NC(=O)c2cccc(-c3cc(C(=O)Nc4ccncc4F)ccc3CN)c2)cc1")
"> 9.00"
>>> result("NCc1ccc(C(=O)Nc2ccncc2F)cc1-c1cccc(C(=O)Nc2ccc(CC(=O)OC3CCCOC3)cc2)c1 (stereo not drawn)")
"> 9.00"

Provide pIC50, tested on UniProt:O75116, for CC[C@@H](C)OC(=O)Cc1ccc(NC(=O)c2cccc(-c3cc(C(=O)Nc4ccncc4F)ccc3CN)c2)cc1 .
> 9.00
